- Test system: L6
- protocol notes: Induction of mitochondrial uncoupling in rat L6 cells assessed as stimulation of cellular oxygen consumption relative to control
- Type: functional
// NOT MET strictly below 200% in %max; MET otherwise

Consider the following illustrative entries.
[[record]]
test_smiles = "Fc1ccccc1Oc1nc2nonc2nc1Oc1ccccc1F"
class = "NOT MET"

[[record]]
test_smiles = "c1ccc(Nc2nc3nonc3nc2Nc2ccccc2)cc1"
class = "NOT MET"

[[record]]
test_smiles = "Fc1ccc(Nc2nc3nonc3nc2Nc2ccc(F)cc2F)c(F)c1"
class = "MET"

[[record]]
test_smiles = "Ic1ccccc1Oc1nc2nonc2nc1Oc1ccccc1I"
class = "NOT MET"


Inquiry: I'd appreciate it if you could say whether "CCCCNc1nc2nonc2nc1NCCCC" has %max at least equal to 200%.
Reply text: NOT MET

Inquiry: I'd appreciate it if you could say whether "Fc1cccc(Nc2nc3nonc3nc2Nc2cccc(F)c2)c1" has %max at least equal to 200%.
Reply text: MET

###

- Tested on: L6
- protocol notes: Induction of mitochondrial uncoupling in rat L6 cells assessed as stimulation of cellular oxygen consumption relative to control
- Type: functional
measurement type: %max (%)
Write the value in % as a bare number.

[[record]]
test_smiles = "Fc1ccc(Nc2nc3nonc3nc2Nc2ccc(F)cc2)cc1"
measurement_type = "%max"
reported = 204

[[record]]
test_smiles = "CCONc1nc2nonc2nc1NOCC"
measurement_type = "%max"
reported = 100

[[record]]
test_smiles = "c1ccc(Oc2nc3nonc3nc2Oc2ccccc2)cc1"
measurement_type = "%max"
reported = 98.3

[[record]]
test_smiles = "Clc1ccc(Nc2nc3nonc3nc2Nc2ccc(Cl)cc2)cc1"
measurement_type = "%max"
reported = 190.4

[[record]]
test_smiles = "FC(F)(F)CONc1nc2nonc2nc1NOCC(F)(F)F"
measurement_type = "%max"
reported = 96.3

[[record]]
test_smiles = "CCCCCCNc1nc2nonc2nc1NCCCCCC"
measurement_type = "%max"
reported = 160.2


# ---- query molecule ----
Inquiry: Name the reported %max value associated with the molecule "CCCNc1nc2nonc2nc1NCCC"
Reply text: 98
